- Tested on: A549 cells
- ASSAY_SUMMARY: In vitro anti-proliferative SRB assay, A549
- Type: cell-based, human
- TEST_SETTINGS: selectivity index, L02 vs A549
RECORDED_METRIC: SI (CC50 L02/IC50 A549)

Q: Complete the entry with SI (CC50 L02/IC50 A549) for COc1ccc(C(=O)/C=C/c2c(OC)cccc2OC)c(O)c1 [b28]
Result: >5.8

Q: Entry COc1cccc(OC)c1/C=C/C(=O)c1ccccc1F [b31] needs its SI (CC50 L02/IC50 A549) filled in; supply it.
Result: >3.6

Q: Answer with the recorded SI (CC50 L02/IC50 A549) of COc1cccc(OC)c1/C=C/C(=O)c1ccc(C)c(C)c1 [b5] only.
Result: <0.8
